All values here come from patent US20100093612A1.

IC50 overview
- target-or-test-system: αvβ5 integrin receptor (Homo sapiens, UniProt P06756+P18084)
- Construct: purchased Chemicon International Inc., Temecula, Calif
- Sequence (P06756 31-889 limits assumed): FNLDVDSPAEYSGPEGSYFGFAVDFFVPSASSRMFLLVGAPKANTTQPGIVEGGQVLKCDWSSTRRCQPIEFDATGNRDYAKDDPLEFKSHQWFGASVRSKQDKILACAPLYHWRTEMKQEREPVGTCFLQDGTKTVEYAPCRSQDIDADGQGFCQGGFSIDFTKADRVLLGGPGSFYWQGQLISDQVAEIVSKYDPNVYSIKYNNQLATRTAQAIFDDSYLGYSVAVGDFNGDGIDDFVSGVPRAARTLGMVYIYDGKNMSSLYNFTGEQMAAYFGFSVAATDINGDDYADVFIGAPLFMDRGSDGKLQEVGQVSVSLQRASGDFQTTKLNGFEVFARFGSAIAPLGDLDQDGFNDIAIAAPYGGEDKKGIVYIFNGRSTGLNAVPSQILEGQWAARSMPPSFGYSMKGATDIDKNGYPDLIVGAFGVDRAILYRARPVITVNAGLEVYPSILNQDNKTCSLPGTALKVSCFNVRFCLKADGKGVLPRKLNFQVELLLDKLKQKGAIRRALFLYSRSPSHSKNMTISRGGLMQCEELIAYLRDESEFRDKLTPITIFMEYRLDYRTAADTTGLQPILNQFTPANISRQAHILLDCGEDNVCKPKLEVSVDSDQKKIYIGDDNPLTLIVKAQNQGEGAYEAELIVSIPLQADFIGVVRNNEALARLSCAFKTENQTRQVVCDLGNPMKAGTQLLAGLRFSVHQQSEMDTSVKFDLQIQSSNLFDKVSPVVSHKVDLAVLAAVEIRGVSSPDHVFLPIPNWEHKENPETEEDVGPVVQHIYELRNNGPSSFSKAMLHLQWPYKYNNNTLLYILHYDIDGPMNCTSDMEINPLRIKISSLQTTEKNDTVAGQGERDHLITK
- Sequence (P06756 891-1048 partner limits assumed): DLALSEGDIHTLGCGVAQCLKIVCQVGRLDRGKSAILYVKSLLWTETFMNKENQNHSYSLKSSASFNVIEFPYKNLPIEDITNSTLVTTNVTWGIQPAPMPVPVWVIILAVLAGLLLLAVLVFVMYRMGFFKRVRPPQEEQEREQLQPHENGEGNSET
- Sequence (P18084 24-799): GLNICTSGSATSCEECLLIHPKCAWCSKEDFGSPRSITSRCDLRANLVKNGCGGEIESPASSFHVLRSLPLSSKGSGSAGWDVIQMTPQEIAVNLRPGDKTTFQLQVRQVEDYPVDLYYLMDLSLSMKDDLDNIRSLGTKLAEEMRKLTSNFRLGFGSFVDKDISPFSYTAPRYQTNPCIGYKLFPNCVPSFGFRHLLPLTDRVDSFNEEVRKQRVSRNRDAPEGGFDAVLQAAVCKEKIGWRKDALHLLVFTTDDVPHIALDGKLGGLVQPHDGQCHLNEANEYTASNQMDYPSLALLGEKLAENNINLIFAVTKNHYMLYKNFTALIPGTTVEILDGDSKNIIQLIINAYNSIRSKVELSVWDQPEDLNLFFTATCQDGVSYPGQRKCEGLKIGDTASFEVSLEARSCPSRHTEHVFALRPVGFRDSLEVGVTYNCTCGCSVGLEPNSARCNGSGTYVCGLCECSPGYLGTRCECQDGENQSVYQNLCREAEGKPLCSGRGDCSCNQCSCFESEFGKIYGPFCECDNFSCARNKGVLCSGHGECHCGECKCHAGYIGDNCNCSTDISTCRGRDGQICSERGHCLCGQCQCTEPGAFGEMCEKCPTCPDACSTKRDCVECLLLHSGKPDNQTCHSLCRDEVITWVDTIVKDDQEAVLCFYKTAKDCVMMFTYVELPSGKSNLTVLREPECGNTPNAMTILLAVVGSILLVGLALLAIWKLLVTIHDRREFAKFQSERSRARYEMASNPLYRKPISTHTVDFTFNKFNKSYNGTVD
- assay-info: Solid-phase receptor-binding assay, competition with [125I]-echistatin, αvβ5
- experimental-conditions: no high-affinity-state footnote; IC50±SD, average of three or more independent determinations; 0.1 nM [125I]echistatin

Consider the following illustrative entries.
CCC(=O)N1C[C@@H]2C[C@H]1C(=O)N[C@@H](CCCNC(=N)N)C(=O)NCC(=O)N[C@@H](CC(=O)O)C(=O)N2 [(Ih), c[Arg-Gly-Asp-AMPRO4-]]; 94 nM
N=C(N)NCCC[C@@H]1NC(=O)[C@@H]2C[C@@H](CN2C(=O)c2ccccc2)NC(=O)[C@H](CC(=O)O)NC(=O)CNC1=O [(If), c[-Arg-Gly-Asp-AMPRO2-]]; 86.6 nM

# input for lookup
Reported IC50, molecule N=C(N)NCCC[C@@H]1NC(=O)[C@@H]2C[C@H](CN2C(=O)c2ccccc2)NC(=O)[C@H](CC(=O)O)NC(=O)CNC1=O [(Ii), c[-Arg-Gly-Asp-AMPRO5-]] : ____
89.2 nM
